molecular target: 72 kDa type IV collagenase (Homo sapiens, UniProt P08253); experiment: Inhibition of human […], matrix metalloprotease-2
Sequence (P08253 whole entry): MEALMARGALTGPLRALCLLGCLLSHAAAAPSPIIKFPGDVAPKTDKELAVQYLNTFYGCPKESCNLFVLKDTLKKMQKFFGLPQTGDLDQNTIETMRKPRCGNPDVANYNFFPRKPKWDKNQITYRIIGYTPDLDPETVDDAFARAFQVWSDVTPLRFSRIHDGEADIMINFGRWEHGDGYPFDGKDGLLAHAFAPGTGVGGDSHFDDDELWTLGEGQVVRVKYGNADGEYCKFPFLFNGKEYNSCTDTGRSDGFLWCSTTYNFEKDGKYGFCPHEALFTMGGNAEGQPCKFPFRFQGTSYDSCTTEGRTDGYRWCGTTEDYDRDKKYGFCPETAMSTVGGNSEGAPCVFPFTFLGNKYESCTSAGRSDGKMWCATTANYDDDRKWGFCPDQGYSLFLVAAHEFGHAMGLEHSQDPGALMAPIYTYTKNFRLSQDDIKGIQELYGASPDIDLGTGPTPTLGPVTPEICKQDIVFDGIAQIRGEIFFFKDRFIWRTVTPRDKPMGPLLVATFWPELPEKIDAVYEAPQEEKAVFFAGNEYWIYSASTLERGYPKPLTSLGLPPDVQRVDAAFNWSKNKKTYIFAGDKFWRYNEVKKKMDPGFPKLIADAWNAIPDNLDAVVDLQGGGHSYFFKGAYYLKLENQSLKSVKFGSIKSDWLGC
observed property: Ki (nM)

Use these answered entries as a reference point.
sample smiles	unit name	Ki
CCCCCCNC(=O)[C@H](Cc1c[nH]c2ccccc12)NC(=O)[C@H](CC(C)C)CP(=O)(O)CSc1ccc2ccccc2n1	nM	300
CCCCCCNC(=O)[C@H](Cc1c[nH]c2ccccc12)NC(=O)[C@@H](CC(=O)O)CC(C)C	nM	472

1. CCCCCCNC(=O)[C@H](Cc1c[nH]c2ccccc12)NC(=O)[C@@H](CC(=O)NO)CC(C)C
2. CC(C)C[C@H](CP(=O)(O)CSc1ccc2ccccc2n1)C(=O)N[C@H]1Cc2cn(c3ccccc23)CCCCCCNC1=O
Sort 1 and 2 by Ki descending and give the first. Lab note: record the label of whichever item you select. 2
